# Measured On: NAD-dependent protein deacylase sirtuin-5, mitochondrial (Homo sapiens)
# Sequence (Q9NXA8 whole entry): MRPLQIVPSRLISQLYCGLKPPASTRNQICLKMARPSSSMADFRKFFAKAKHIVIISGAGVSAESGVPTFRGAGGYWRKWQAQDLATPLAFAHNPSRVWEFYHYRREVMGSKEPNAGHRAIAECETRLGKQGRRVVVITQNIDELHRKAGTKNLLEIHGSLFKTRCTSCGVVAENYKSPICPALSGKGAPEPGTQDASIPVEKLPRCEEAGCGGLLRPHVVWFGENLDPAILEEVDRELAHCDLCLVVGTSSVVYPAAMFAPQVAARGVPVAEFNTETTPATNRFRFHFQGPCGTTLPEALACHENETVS
# Measurement Notes: Inhibition of recombinant human Sirt5 incubated for 1 hr by FLUOR DE LYS fluorometric microplate reader assay
pIC50: −log10 of the molar value.
Quantity Measured: pIC50

Example entries begin here.
[[record]]
smiles_str = "O=C(O)CCNC(=O)c1ccc(-c2cc(-c3ccc(O)c(C(=O)O)c3)n[nH]2)cc1"
value_measured = 5.07

[[record]]
smiles_str = "O=C(O)CCNC(=O)c1ccc(-c2cn(-c3ccc(O)c(C(=O)O)c3)nn2)cc1"
value_measured = 5.14

[[record]]
smiles_str = "O=C(O)CCNC(=O)c1ccc(NS(=O)(=O)c2ccc(O)c(C(=O)O)c2)cc1"
value_measured = 4.90


a = O=C(O)CCNC(=O)c1ccc(-c2cc(-c3ccc(O)c(C(=O)O)c3)no2)cc1
b = O=C(O)CCNC(=O)c1ccc(/N=N/c2ccc(F)c(C(=O)O)c2)cc1
Prompt: API: POST /compare with a and b ; response names the item with higher pIC50. Mark your answer with the label of the selected entry.
Response: a
